B1: TPR 5TU (parent)
chain: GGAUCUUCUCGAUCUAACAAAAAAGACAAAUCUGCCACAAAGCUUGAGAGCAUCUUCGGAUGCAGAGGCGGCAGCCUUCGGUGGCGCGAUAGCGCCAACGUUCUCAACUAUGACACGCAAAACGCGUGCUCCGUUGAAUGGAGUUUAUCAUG

# Variants of: B1
# method: polymerase ribozyme fitness, log enrichment relative to wild type (log ratio); higher = more active; in vitro selection for triplet polymerase activity
This sample holds only a part of the variants without activity.
endpoint: polymerase ribozyme fitness (log ratio)
Form field (numeric): enter value without unit.

Recorded results for 2 variants are shown here.
| variant_string | polymerase ribozyme fitness (log ratio) |
| --- | --- |
| C14U C96A | -1.59 |
| C72G | -3.79 |

Next:
Please look up its polymerase ribozyme fitness (log ratio): A41C A91G
-2.85
